# System: VEGF-121 (Homo sapiens), P15692-9
# Sequence: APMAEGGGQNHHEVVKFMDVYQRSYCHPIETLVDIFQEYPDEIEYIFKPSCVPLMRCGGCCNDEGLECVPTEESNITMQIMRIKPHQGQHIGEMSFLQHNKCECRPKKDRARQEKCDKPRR
# protocol-notes: filter
# condition-set: as 4867-31_192; PS 3' of 27; 3' inverted dT
property: Kd (nM)
Answer in nM, number only, no unit symbol.

Q: What measured Kd goes with CCGTTCAAGTGCTTGTAGGATTTAAATGG [4867-31_429] ?
A: 0.012

* * *

# measurement-target: PDGF-BB (platelet-derived growth factor BB) (Homo sapiens) (UniProt P01127)
# Sequence (P01127 82-190): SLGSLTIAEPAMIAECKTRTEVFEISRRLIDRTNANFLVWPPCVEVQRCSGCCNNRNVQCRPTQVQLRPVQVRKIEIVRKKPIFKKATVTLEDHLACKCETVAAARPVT
# protocol-notes: filter
# condition-set: as 5169-4_146; PS 5; 3' inverted dT
property: Kd (nM)
Answer in nM, number only, no unit symbol.

Q: Lookup: Kd / PDGF-BB (platelet-derived growth factor BB) (Homo sapiens) (UniProt P01127) / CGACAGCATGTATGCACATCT [5169-4_152]
A: 0.015
